study_system: Sap Domain 2 (D2, residues 296-384), isolated recombinant domain (Bacillus anthracis, UniProt P49051 296-384)
protocol: dot blot

{"columns": ["binder", "binding result"],
 "data": [
  ["anti-Sap Nanobody707 (VHH) VHH: QVQLVESGGGLVQAGGSLRLSCAASGSIFRINAMGWYRQASGKQRELVAAITSGGNTNYADSVKGRFTISRDNAKNTVYLQMNSLKPEDTAVYYCNADFGTGGRPYDYWGQGTQVTVSS", "no binding"],
  ["anti-Sap Nanobody692 (VHH) VHH: QVQLVESGGGLVQAGGSLRLSCAASGSIFRINDMGWYRQAPGKQRELVAVITSGGSANYADSVKGRFSISRDNAKKAVYLRMNSLKPEDTAVYYCNADFGTLGRYDYWGQGTQVTVSS", "no binding"],
  ["anti-Sap Nanobody683 (VHH) VHH: QVQLVESGGGLVQAGGSLRLSCAASGSIFRINDMGWYRQAPGKQRELVAAITSGGSTNYADSVKGRFTISRDNAKKMVYLQMNSLKPEDTAVYYCHADFSTGWAPYDYWGQGTQVTVSS", "no binding"],
  ["anti-Sap Nanobody702 (VHH) VHH: QVQLVESGGGLVQAGGSLRLSCAASGSIFRVNDMGWYRQAPGKQRELVAIIITGGSTNYADSVKGRFTISRDNAKNTVYLQMNSLRPEDTAVYYCNADFGTGPGRYDYWGQGTQVTVSS", "no binding"],
  ["anti-Sap Nanobody688 (VHH) VHH: QVQLVESGGGLVRAGGSLRLSCAASGSIFRINDMGWYRQAPGKQRELVAAITSGGSTNYADSVKGRFTISRDNAKNTVYLQMNSLKPEDTAVYYCNADFSTVRERRYDYWGQGTQVTVSS", "no binding"]
]}
